system.tested: NS3 (nonstructural protein 3, protease-helicase) (Hepatitis C virus genotype 1b (con1b), UniProt Q9WMX2 1027-1657)
Sequence (Q9WMX2 1027-1657): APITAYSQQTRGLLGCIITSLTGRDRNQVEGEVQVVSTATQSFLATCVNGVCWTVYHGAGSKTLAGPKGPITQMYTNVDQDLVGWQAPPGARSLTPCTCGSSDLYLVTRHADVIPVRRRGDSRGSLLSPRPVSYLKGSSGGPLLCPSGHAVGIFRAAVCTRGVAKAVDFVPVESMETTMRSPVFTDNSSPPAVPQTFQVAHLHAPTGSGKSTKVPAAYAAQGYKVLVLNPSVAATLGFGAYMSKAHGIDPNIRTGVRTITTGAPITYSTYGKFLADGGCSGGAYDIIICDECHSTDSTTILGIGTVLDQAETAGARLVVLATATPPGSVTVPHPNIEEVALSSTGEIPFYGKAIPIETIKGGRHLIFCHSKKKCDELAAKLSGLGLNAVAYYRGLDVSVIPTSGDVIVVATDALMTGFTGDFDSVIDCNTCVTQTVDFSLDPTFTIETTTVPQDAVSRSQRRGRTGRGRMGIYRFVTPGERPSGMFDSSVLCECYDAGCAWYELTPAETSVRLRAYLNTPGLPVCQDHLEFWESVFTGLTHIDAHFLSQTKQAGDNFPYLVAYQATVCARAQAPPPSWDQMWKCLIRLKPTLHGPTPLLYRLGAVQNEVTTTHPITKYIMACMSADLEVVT
assay.details: fluorescence anisotropy; 100 mM KCl; same data, two-sites fit, Kd1; 25 mM MOPS pH 6.5, 100 mM KCl, 0.1 mM EDTA, 2 mM beta-mercaptoethanol, 0.1 mg/ml BSA, 37 C, 30 min; RNA 2 nM unless stated, folded in 100 mM KCl
applied.conditions: protein: recombinant; label: 3'-6FAM; single-stranded
quantity: Kd
Answer format reminder: number followed by unit.

// lookup Kd for AAAAAAAAAAAAAAAAAAAA (ssRNA) [A20] 4.9 nM
